Each recorded value in this set is attributed to paper PMC9224258.

Tested on: P. mirabilis ATCC 12453
Test: micro-dilution broth MIC
Type: cell-based, Proteus mirabilis
Details: Proteus mirabilis, ATCC12453, Gram-negative, read-out: MIC
observed-property: MIC (µg/mL)

P: c1cnc2[nH]c(-c3ccncc3)nc2c1 [Complex L2]
Q: O=C(O)c1cn(C2CC2)c2cc(N3CCNCC3)c(F)cc2c1=O [Cip, ciprofloxacin, reference compound]
Of P and Q , which one carries the higher reported MIC? Answer with the label corresponding to your selection.
P
(P: 1000 µg/mL, Q: 0.03 µg/mL)

----------
Test system: P. aeruginosa ATCC 9027
Assay: micro-dilution broth MIC
Format: cell-based, Pseudomonas aeruginosa
Settings: Pseudomonas aeruginosa, ATCC9027, Gram-negative, read-out: MIC
Each entry below carries its reported MIC.

molecule=c1cnc2[nH]c(-c3ccncc3)nc2c1 observed="> 1000 µg/mL"
molecule="O=C(O)c1cn(C2CC2)c2cc(N3CCNCC3)c(F)cc2c1=O [Cip, ciprofloxacin, reference compound]" observed="0.49 µg/mL"
molecule=c1cc(-c2nc3ccncc3[nH]2)ccn1 observed="> 1000 µg/mL"

Now look at this one.
Lab note: need MIC with P. aeruginosa ATCC 9027 for entry Brc1cnc2[nH]c(-c3cccnc3)nc2c1 , please look it up.
> 1000 µg/mL
